Target: sigma receptors
Test: sigma receptor binding, [^3 H]di(2-tolyl)guanidine (DTG)
Conditions: approximately 4 nM radioligand; 25° C., 90 min; mean of at least two separate determinations performed in triplicate
Experimental: Brain tissue was prepared from male Hartley guinea pigs (Hazelton Labs, Denver, Pa.) which were anesthetized with CO2 and sacrificed by decapitation. […] Following addition of scintillation cocktail, samples were allowed to equilibrate for at least 4 hr. The amount of bound radioactivity was determined by liquid scintillation spectrometry using a Beckman LS 5000 TA liquid scintillation counter with an efficiency for tritium of approximately 60%. […]
pKi: −log10 of the molar value.

MOLECULE	pKi
C[C@@H]1CCN(C)[C@@H](C)[C@]1(C)CCN1CCCC1 (relative stereo)	5.12
